Entries and their measured Potency follow.
- Experiment notes: qHTS Assay for Modulators of miRNAs and/or Inhibitors of miR-21
- Measurement parameters: HeLa miR-21-FLuc reporter, luciferase luminescence, 48 h; actives lower the signal
Among all 340,000 compounds or so, about 3,300 (0.97%) were called active. Not shown: some 9% with an inconclusive outcome. The list shows a part of the results.

# annotated cases, reported Potency shown
# Compound, Potency
measured = [
    ("Cc1ccccc1-n1c(C)cc(/C=N/Nc2ccc([N+](=O)[O-])cn2)c1C", "3.69 µM (active)"),
    ("O=C(c1cc(-c2cccc(Cl)c2)on1)N1CCCC1", "3.69 µM (active)"),
    ("Cc1ccc(/C=C/C(=O)NCc2cccs2)c(C)c1", "5.85 µM (active)"),
    ("COc1cccc(Nc2ncnc3sc(C)cc23)c1", "6.56 µM (active)"),
    ("COc1cccc(Nc2ncnc3ccccc23)c1", "2.33 µM (active)"),
    ("O=C(CCCC(=O)c1ccc(F)cc1)c1ccc(F)cc1", "3.29 µM (active)"),
    ("COc1ccc(Nc2cc(Nc3cccc(OC)c3)ncn2)cc1", "14.7 µM (active)"),
    ("O=C(CNC(=O)c1ccc(F)cc1)c1ccc(Cl)cc1", "3.69 µM (active)"),
    ("CC1CCC(NC(=O)CNC(=O)c2cccs2)CC1 (configuration not stated)", "3.29 µM (active)"),
    ("C=CCn1cccc(C(=O)Nc2ccc(N(C)C)cc2)c1=O", "4.65 µM (active)"),
]

## Input Endpoint output: Potency of O=C(CNC(=O)c1cccs1)c1ccc(Br)cc1 . Value?
## Output 3.29 µM (active)

## Input # input compound: O=C(c1cc(-c2cccc(Cl)c2)on1)N1CCCCCC1 ; wanted: its Potency
## Output 4.65 µM (active)

###

- Experiment notes: qHTS Assay for Modulators of miRNAs and/or Inhibitors of miR-21
- Measurement parameters: HeLa miR-21-FLuc reporter, luciferase luminescence, 48 h; actives lower the signal
The whole screen tested about 340,000 compounds, of which about 3,300 (0.97%) were called active. About 9% were inconclusive and are not listed. This is one part of the list.
Reported values of Potency for individual entries

Here is how some compounds turned out for Potency.
# Compound, Measurement name, Experimental result
rows = [
    ("O=C(c1cc(COc2ccc(F)cc2F)on1)N1C[C@H]2CC[C@H]1C2", "Potency", "13.1 µM (active)"),
    ("Cc1ccc2c(CN3CCC(C)CC3)cc(=O)oc2c1", "Potency", "5.21 µM (active)"),
    ("Cc1cccc(/C=N\\Nc2cn[nH]c(=O)c2Cl)c1", "Potency", "18.5 µM (active)"),
]

## Input Reported Potency for CC(=O)c1cccc(OCc2cc(C(=O)N3C[C@H]4CC[C@H]3C4)no2)c1 : what is it?
## Output 5.21 µM (active)

## Input For the compound Nc1nc(-c2ccc3ccccc3c2)cs1 , what Potency is on record?
## Output 1.65 µM (active)

## Input Given the compound CC(=O)c1cccc(OCc2cc(C(=O)N(C)CCC3CCOCC3)no2)c1 , what is its reported Potency?
## Output 16.5 µM (active)

###

Listed next: entries and their corresponding Potency.
- Experiment notes: qHTS Assay for Modulators of miRNAs and/or Inhibitors of miR-21
- Measurement parameters: HeLa miR-21-FLuc reporter, luciferase luminescence, 48 h; actives lower the signal
- Excerpt: MLSCN Grant: 1 R21 NS059478-01 Assay Provider: Qihong Huang, The Wistar Institute NCGC Assay Overview: MicroRNAs (miRNAs) are endogenously encoded small (~20-25 nucleotides), nonprotein-coding RNAs that are involved in post-transcriptional repression of target messenger RNAs (mRNAs) (Le and Hannon, 2004). […]
Screen size: about 340,000 compounds; about 3,300 (0.97%) were called active. Another 9% or so got no clear call; they are omitted. The list shows a part of the results.

# Molecule, Experimental result
rows = [
    ("Cc1ccc2nc(N3C(=O)C(O)=C(C(=O)c4ccco4)C3c3cccs3)sc2c1 (centres undefined)", "5.21 µM (active)"),
]

## Input Looking for the measured Potency of C#CCNC(=O)/C=C/c1ccc(OC)cc1 , can you help?
## Output 13.1 µM (active)

###

- Experiment notes: qHTS Assay for Modulators of miRNAs and/or Inhibitors of miR-21; also: potency is read from the fitted curve at half-maximal effect; nearly all actives have a fitted effect of over 55% in size
- Measurement parameters: HeLa miR-21-FLuc reporter, luciferase luminescence, 48 h; actives lower the signal
Among all 340,000 compounds or so, about 3,300 (0.97%) were called active. Another 9% or so got no clear call; they are omitted. Some of the results follow.
Measurement name: Potency

# Compound, Potency
measured = [
    ("CCCOc1ccc(-c2nc(N3CCN(C)CC3)c3ccccc3n2)cc1", "2.93 µM (active)"),
    ("CC(=O)C(C)Oc1ccc2c3c(c(=O)oc2c1C)CCCC3 (stereo not given)", "16.5 µM (active)"),
    ("Nc1ccc(Oc2cc(N)cc(Oc3ccccc3)c2)cc1", "8.26 µM (active)"),
    ("COc1cc(/C=N/N(C)c2ccccc2)ccc1O", "2.61 µM (active)"),
    ("COc1ccc(NC(=O)c2ccccn2)cc1OC", "11.7 µM (active)"),
    ("COc1ccccc1OCCCOc1ccc(C)cc1Br", "14.7 µM (active)"),
]

## Input For the compound Fc1ccccc1Nc1nc2ccccc2n2nnnc12 , what Potency is on record?
## Output 16.5 µM (active)

###

- Experiment notes: qHTS Assay for Modulators of miRNAs and/or Inhibitors of miR-21; also: potency is read from the fitted curve at half-maximal effect; nearly all actives have a fitted effect of over 55% in size
- Measurement parameters: HeLa miR-21-FLuc reporter, luciferase luminescence, 48 h; actives lower the signal
The campaign covered roughly 340,000 compounds. About 3,300 (0.97%) were called active. Not shown: some 9% with an inconclusive outcome. Some of the results follow.
Measurement name: Potency

Example entries begin here.
# Molecule, Potency
records = [
    ("Cc1cc(C(=O)Nc2ccc3ccccc3c2)oc1C", "0.293 µM (active)"),
    ("CCOc1cc(C2NN=C(c3ccc(C)cc3)S2)ccc1O (stereo not given)", "4.65 µM (active)"),
    ("COc1ccc(C2NN=C(c3ccc(C)cc3)S2)cc1 (stereo not given)", "1.17 µM (active)"),
    ("NC(=O)c1ccsc1NC(=O)c1coc2ccccc2c1=O", "1.17 µM (active)"),
]

## Input Fill in: Potency of COc1ccc(/C=C/C(=O)O/N=C(\N)c2ccccc2)cc1OC is ___
## Output 5.85 µM (active)

## Input May I ask what Potency has been recorded for Cc1oncc1C(=O)Nc1ccc2ccccc2c1 ?
## Output 7.36 µM (active)

## Input Would you mind telling me what Potency value was observed for COCCCNC(=O)c1ccc(NC(=O)c2nsc3ccccc23)cc1 ?
## Output 3.69 µM (active)

## Input Record request: Potency value, item Cc1ccccc1NC(=O)c1ccc2c(c1)N(C)CCS2
## Output 3.69 µM (active)

###

- Experiment notes: qHTS Assay for Modulators of miRNAs and/or Inhibitors of miR-21; also: potency is read from the fitted curve at half-maximal effect; nearly all actives have a fitted effect of over 55% in size
- Measurement parameters: HeLa miR-21-FLuc reporter, luciferase luminescence, 48 h; actives lower the signal
About 3,300 (0.97%) of roughly 340,000 compounds were called active. Roughly 9% stayed inconclusive and do not appear here. Some of the results follow.
Measurement name: Potency

Solved cases (4 shown):
# Smiles str, Experimental result
rows = [
    ("Cc1ccccc1NC(=S)c1ccc2ccccc2n1", "7.36 µM (active)"),
    ("CCOC(=O)c1c(C)[nH]c(N=Nc2ccc(C)cc2C)c1C", "10.4 µM (active)"),
    ("CCOC(=O)c1c(C)[nH]c(N=Nc2ccccc2)c1C", "7.36 µM (active)"),
    ("C/C(=N\\Nc1nncc2ccccc12)c1ccc(C(C)(C)C)cc1", "7.36 µM (active)"),
]

## Input Record request: Potency value, item COC(=O)c1sccc1N/N=C/c1cccc(Oc2ccccc2)c1
## Output 1.85 µM (active)

## Input Sample C/C(=N\Nc1nncc2ccccc12)c1cccc(OC(F)F)c1 — what was its Potency?
## Output 0.414 µM (active)

## Input // Potency lookup, key: Cc1ccc(C)c(NC(=S)c2ccc3ccccc3n2)c1
## Output 1.65 µM (active)

## Input What value of Potency has been recorded for this entry: COc1cccc(/C(N)=N/OC(=O)Cc2ccccc2[N+](=O)[O-])c1
## Output 9.27 µM (active)

###

- Experiment notes: qHTS Assay for Modulators of miRNAs and/or Inhibitors of miR-21; also: potency is read from the fitted curve at half-maximal effect; nearly all actives have a fitted effect of over 55% in size
- Measurement parameters: HeLa miR-21-FLuc reporter, luciferase luminescence, 48 h; actives lower the signal
- Excerpt: MLSCN Grant: 1 R21 NS059478-01 Assay Provider: Qihong Huang, The Wistar Institute NCGC Assay Overview: MicroRNAs (miRNAs) are endogenously encoded small (~20-25 nucleotides), nonprotein-coding RNAs that are involved in post-transcriptional repression of target messenger RNAs (mRNAs) (Le and Hannon, 2004). […]
About 3,300 (0.97%) of roughly 340,000 compounds were called active. Inconclusive results (about 9%) are left out. The list shows a part of the results.
Reported Potency values for the following compounds.

# Smiles str, Experimental result
measured = [
    ("COc1ccc2oc(C(=O)NC(C)(C)C)c(C)c2c1", "3.69 µM (active)"),
]

## Input Can you look up the measured Potency of COc1ccccc1C(=O)Nc1nnc(SCC(=O)NC2CCCC2)s1 for me?
## Output 0.414 µM (active)

## Input Record request: Potency value, item COc1ccc2oc(C(=O)NC3CCCCC3)c(C)c2c1
## Output 2.93 µM (active)

## Input Quick one: Potency for COc1ccc(NC(=O)CSCc2ccccc2C)cc1 ?
## Output 7.36 µM (active)

## Input Quick one: Potency for CC(=O)c1ccc(N2CCc3ccccc3C2)c([N+](=O)[O-])c1 ?
## Output 9.27 µM (active)

## Input Tell me the measured Potency of COc1cccc(C(=O)Nc2ccc3c(C)cc(=O)oc3c2)c1 , please.
## Output 0.329 µM (active)

## Input Query: Potency; subject: COc1ccc(CNC(=O)CSCc2ccccc2Cl)cc1
## Output 13.1 µM (active)

## Input Item under review: COc1cc2c(cc1OC)CN(c1ccc(F)cc1[N+](=O)[O-])CC2 . Reported Potency?
## Output 13.1 µM (active)
